- tested-system: T1, PSMA Fab
- T1 construct: also called Anti-PSMA Fab; 006 PSMA Fab
- test-method-notes: clonal phage ELISA on biotinylated PSMA Fab captured on neutravidin plates, anti-M13 HRP detection;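 note: crude clonal phage supernatants tested, before phage were added, wells were pretreated with PSMA antigen in blocking buffer or with blocking buffer only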
Each entry below carries its reported phage binding ELISA signal.

binder | phage binding ELISA signal
VDYVCRPSWMCSGI (tested as crude phage supernatant; The number 3883 of the label stands in r4366) [Phage-3883] | 1.12
TAPMCNPPWMCYGL (tested as crude phage supernatant) [Phage-3878] | 1.13
SNVMCRPSWMCAGF (tested as crude phage supernatant) [Phage-3876] | 1.14
MDVWCVPQWMCDGF (tested as crude phage supernatant) [Phage-3882] | 1.12
VTPACMPRWMCEGF (tested as crude phage supernatant) [Phage-3879] | 1.13
YDRLCSPPWMCSGF (tested as crude phage supernatant) [Phage-3874] | 1.15

The measured values listed here are drawn from patent US20260242478A1.
